system: UniProt P10144
Sequence (P10144 21-247): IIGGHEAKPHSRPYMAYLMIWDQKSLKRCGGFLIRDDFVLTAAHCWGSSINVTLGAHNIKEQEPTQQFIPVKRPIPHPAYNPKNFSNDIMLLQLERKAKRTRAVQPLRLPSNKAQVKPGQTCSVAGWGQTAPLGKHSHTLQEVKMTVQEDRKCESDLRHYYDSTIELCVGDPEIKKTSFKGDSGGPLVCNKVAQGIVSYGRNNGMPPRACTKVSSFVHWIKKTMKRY
experiment-notes: human Granzyme B biochemical assay
setup-conditions: Granzyme B (human lymphocytes) 5 nM, substrate Ac-IETD-AFC 200 μM, Cpd incubation with enzyme 30 mins, 22° C., read time 60 mins; read-out: IC50
reported-metric: IC50

Incoming: Look at this compound and give its reported IC50. CC(C)[C@H](NC(=O)c1ccncc1)C(=O)N[C@H]1CCc2cccc3c2N(C1=O)[C@H](C(=O)NCc1c[nH]nn1)C3
Outgoing: 1 to 300 nM

Incoming: Another compound to look at: CC(C)[C@H](NC(=O)c1ccccn1)C(=O)N[C@H]1CCc2cccc3c2N(C1=O)[C@H](C(=O)NCc1c[nH]nn1)C3
Outgoing: 1 to 300 nM

Others:
Incoming: Can you share its IC50? I mean this compound: CC(=O)N[C@@H](Cc1ccc(O)cc1)C(=O)N[C@H]1CCc2cccc3c2N(C1=O)[C@H](C(=O)NCc1c[nH]nn1)C3
Outgoing: 1000 to 5000 nM
